PROTOCOL TEXT: Metabolic stability in human liver microsomes assessed as compound remaining at 1 to 10 uM after 60 mins
Assay type: ADME, Microsome
CONDITIONS: read-out: Stability
PROPERTY NAME: remaining at 1 h, up to 10 µM (%)

• CCc1nnc(NS(=O)(=O)c2ccc(NC(=S)NC(=O)/C=C/c3ccc(F)cc3)cc2)s1 = 40
• COc1cc(NS(=O)(=O)c2ccc(NC(=S)NC(=O)/C=C/c3ccc(F)cc3)cc2)ncn1 = 40

###

PROTOCOL TEXT: Metabolic stability in mouse liver microsomes assessed as compound remaining at 1 to 10 uM after 60 mins
Type: ADME, Microsome
CONDITIONS: read-out: Stability
Listed here: items and their measured remaining at 1 h, up to 10 µM.
PROPERTY NAME: remaining at 1 h, up to 10 µM (%)

* COc1cc(NS(=O)(=O)c2ccc(NC(=S)NC(=O)/C=C/c3ccc(F)cc3)cc2)ncn1 | 40
* CCc1nnc(NS(=O)(=O)c2ccc(NC(=S)NC(=O)/C=C/c3ccc(F)cc3)cc2)s1 | 40

###

Listed here: items and their measured CC50.
Test system: C6
PROTOCOL TEXT: Cytotoxicity against rat C6 cells after 48 hrs
Assay type: cell-based
CONDITIONS: c6, 48 h
PROPERTY NAME: CC50 (µM)

- CCc1nnc(NS(=O)(=O)c2ccc(NC(=S)NC(=O)/C=C/c3ccc(OC)cc3)cc2)s1: 365
- COc1cc(NS(=O)(=O)c2ccc(NC(=S)NC(=O)c3cccs3)cc2)nc(OC)n1: 258
- COc1cc(NS(=O)(=O)c2ccc(NC(=S)NC(=O)c3sc4cc(F)ccc4c3Cl)cc2)nc(OC)n1: 96
- CCc1nnc(NS(=O)(=O)c2ccc(NC(=S)NC(=O)c3ccc(OC)cc3)cc2)s1: 186
- CCc1nnc(NS(=O)(=O)c2ccc(NC(=S)NC(=O)/C=C/c3cccs3)cc2)s1: 330
- CCc1nnc(NS(=O)(=O)c2ccc(NC(=S)NC(=O)/C=C/c3ccc(F)cc3)cc2)s1: 326
- CCc1nnc(NS(=O)(=O)c2ccc(NC(=S)NC(=O)/C=C/c3ccccc3)cc2)s1: 370
- COc1ccc(NS(=O)(=O)c2ccc(NC(=S)NC(=O)/C=C/c3ccc(C)cc3)cc2)nn1: 150
- COc1cc(NS(=O)(=O)c2ccc(NC(=S)NC(=O)/C=C/c3ccc(F)cc3)cc2)ncn1: 378

###

PROTOCOL TEXT: Plasma concentration in C57BL/6 mouse at 10 mg/kg, po after 30 mins
Format: ADME, organism-based
Set-up: dose 10 mg/kg, route oral
PROPERTY NAME: concentration at 0.5 h (µM)

* CCc1nnc(NS(=O)(=O)c2ccc(NC(=S)NC(=O)/C=C/c3ccc(F)cc3)cc2)s1 | 12

###

PROTOCOL TEXT: Inhibition of Staphylococcus aureus NadD
pIC50: −log10 of the molar value.
PROPERTY NAME: pIC50

- CCc1nnc(NS(=O)(=O)c2ccc(NC(=S)NC(=O)/C=C/c3ccc(F)cc3)cc2)s1: 5.35

###

Listed here: items and their measured Kb.
TARGET ENTITY: Prostaglandin E2 receptor EP4 subtype (Homo sapiens) (UniProt P35408)
Sequence (P35408 whole entry): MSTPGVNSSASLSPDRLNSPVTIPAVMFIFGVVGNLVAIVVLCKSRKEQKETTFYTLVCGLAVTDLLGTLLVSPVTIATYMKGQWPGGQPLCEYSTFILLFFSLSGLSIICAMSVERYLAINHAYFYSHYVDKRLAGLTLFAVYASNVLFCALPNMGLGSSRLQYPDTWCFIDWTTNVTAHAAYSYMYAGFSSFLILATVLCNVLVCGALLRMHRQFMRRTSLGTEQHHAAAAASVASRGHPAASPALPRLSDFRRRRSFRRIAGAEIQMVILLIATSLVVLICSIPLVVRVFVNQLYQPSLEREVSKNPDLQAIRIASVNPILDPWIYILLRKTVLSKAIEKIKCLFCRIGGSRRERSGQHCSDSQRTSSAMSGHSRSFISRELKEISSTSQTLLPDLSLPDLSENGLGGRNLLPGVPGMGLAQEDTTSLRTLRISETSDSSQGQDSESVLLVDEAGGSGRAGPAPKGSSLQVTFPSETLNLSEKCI
PROTOCOL TEXT: Antagonist activity at human EP4 receptor overexpressed in rat C6 cells assessed as inhibition of PGE2-induced cAMP accumulation incubated for 10 mins prior to PGE2 addition measured after 40 mins by TR-FRET assay
Assay type: functional, cell-based
PROPERTY NAME: Kb (µM)

• COc1cc(NS(=O)(=O)c2ccc(NC(=S)NC(=O)c3sc4cc(F)ccc4c3Cl)cc2)nc(OC)n1 = 0.7
• COc1ccc(NS(=O)(=O)c2ccc(NC(=S)NC(=O)/C=C/c3ccc(C)cc3)cc2)nn1 = 20.5
• CCc1nnc(NS(=O)(=O)c2ccc(NC(=S)NC(=O)/C=C/c3ccc(OC)cc3)cc2)s1 = 13
• COc1cc(NS(=O)(=O)c2ccc(NC(=S)NC(=O)/C=C/c3ccc(F)cc3)cc2)ncn1 = 18.2

###

TARGET ENTITY: Prostaglandin D2 receptor (Homo sapiens) (UniProt Q13258)
Sequence (whole entry): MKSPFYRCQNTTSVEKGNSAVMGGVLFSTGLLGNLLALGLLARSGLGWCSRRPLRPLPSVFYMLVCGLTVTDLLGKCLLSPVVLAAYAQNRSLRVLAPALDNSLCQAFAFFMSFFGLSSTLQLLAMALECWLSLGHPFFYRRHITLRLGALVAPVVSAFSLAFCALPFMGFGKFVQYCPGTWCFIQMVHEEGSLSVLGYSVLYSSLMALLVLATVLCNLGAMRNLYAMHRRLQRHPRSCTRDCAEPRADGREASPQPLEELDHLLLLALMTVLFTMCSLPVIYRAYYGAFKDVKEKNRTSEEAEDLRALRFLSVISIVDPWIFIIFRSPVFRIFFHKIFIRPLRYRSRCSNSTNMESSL
PROTOCOL TEXT: Antagonist activity at human DP1 receptor overexpressed in rat C6 cells assessed as inhibition of BW245C-induced cAMP accumulation incubated for 10 mins prior to BW245C addition measured after 40 mins by TR-FRET assay
Type: functional, cell-based
Listed here: items and their measured Kb.
PROPERTY NAME: Kb (µM)

• COc1cc(NS(=O)(=O)c2ccc(NC(=S)NC(=O)c3cccs3)cc2)nc(OC)n1 = 25.2
• COc1cc(NS(=O)(=O)c2ccc(NC(=S)NC(=O)c3sc4cc(F)ccc4c3Cl)cc2)nc(OC)n1 = 8.7
• CCc1nnc(NS(=O)(=O)c2ccc(NC(=S)NC(=O)/C=C/c3ccccc3)cc2)s1 = 9.8
• CCc1nnc(NS(=O)(=O)c2ccc(NC(=S)NC(=O)c3ccc(OC)cc3)cc2)s1 = 16.1
• CCc1nnc(NS(=O)(=O)c2ccc(NC(=S)NC(=O)/C=C/c3ccc(OC)cc3)cc2)s1 = 46.6

###

PROTOCOL TEXT: Plasma concentration in C57BL/6 mouse at 5 mg/kg, ip after 30 mins
Type: ADME, organism-based
Design: dose 5 mg/kg, route intraperitoneal
PROPERTY NAME: concentration at 0.5 h (µM)

- CCc1nnc(NS(=O)(=O)c2ccc(NC(=S)NC(=O)/C=C/c3ccc(F)cc3)cc2)s1: 30
